These data points were gathered from patent EP0252525B1.

TARGET_OF_ASSAY: HPA (Homo sapiens)
Sequence (P04746 16-511): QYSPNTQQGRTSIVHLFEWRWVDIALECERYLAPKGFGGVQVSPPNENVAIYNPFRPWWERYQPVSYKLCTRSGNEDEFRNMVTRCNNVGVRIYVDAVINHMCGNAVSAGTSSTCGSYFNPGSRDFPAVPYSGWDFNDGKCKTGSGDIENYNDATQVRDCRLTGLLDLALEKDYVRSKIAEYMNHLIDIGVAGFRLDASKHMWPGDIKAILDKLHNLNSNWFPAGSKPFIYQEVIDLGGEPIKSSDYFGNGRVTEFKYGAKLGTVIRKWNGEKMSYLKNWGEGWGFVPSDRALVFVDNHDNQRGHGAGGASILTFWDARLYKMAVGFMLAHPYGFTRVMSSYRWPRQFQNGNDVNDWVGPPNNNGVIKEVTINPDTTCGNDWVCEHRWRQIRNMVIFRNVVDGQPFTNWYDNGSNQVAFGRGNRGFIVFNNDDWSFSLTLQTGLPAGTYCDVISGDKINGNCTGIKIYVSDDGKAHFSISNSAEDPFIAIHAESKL
EXPERIMENT_DESCRIPTION: Binding mode (distribution of hydrolysis products) by HPLC
Type: biochemical
CONDITION_DESCRIPTION: share of product G2P
MEASURE: Hydrolysis product G2P (%)

Check out these entries, answers already filled in.
- COMPOUND: "O=[N+]([O-])c1ccc(O[C@H]2O[C@H](CO)[C@@H](O[C@H]3O[C@H](CO)[C@@H](O[C@H]4O[C@H](CO)[C@@H](O[C@H]5O[C@H](CO)[C@@H](O[C@H]6O[C@H](CO)[C@@H](O[C@H]7O[C@H](CO)[C@@H](O)[C@H](O)[C@H]7O)[C@H](O)[C@H]6O)[C@H](O)[C@H]5O)[C@H](O)[C@H]4O)[C@H](O)[C@H]3O)[C@H](O)[C@H]2O)cc1 [Substrate G6P]"
  TARGET_OF_ASSAY: "HPA (Homo sapiens)"
  Hydrolysis product G2P [%]: 22
- COMPOUND: "O=[N+]([O-])c1ccc(O[C@H]2O[C@H](CO)[C@@H](O[C@H]3O[C@H](CO)[C@@H](O[C@H]4O[C@H](CO)[C@@H](O[C@H]5O[C@H](CO)[C@@H](O[C@H]6O[C@H](COCc7ccccc7)[C@@H](O)[C@H](O)[C@H]6O)[C@H](O)[C@H]5O)[C@H](O)[C@H]4O)[C@H](O)[C@H]3O)[C@H](O)[C@H]2O)cc1 [BG5P]"
  TARGET_OF_ASSAY: "HPA (Homo sapiens)"
  Hydrolysis product G2P [%]: 95
- COMPOUND: "O=[N+]([O-])c1ccc(O[C@H]2O[C@H](CO)[C@@H](O[C@H]3O[C@H](CO)[C@@H](O[C@H]4O[C@H](CO)[C@@H](O[C@H]5O[C@H](CO)[C@@H](O[C@H]6O[C@H](CO)[C@@H](O[C@H]7O[C@H](CO)[C@@H](O[C@H]8O[C@H](COCc9ccccc9)[C@@H](O)[C@H](O)[C@H]8O)[C@H](O)[C@H]7O)[C@H](O)[C@H]6O)[C@H](O)[C@H]5O)[C@H](O)[C@H]4O)[C@H](O)[C@H]3O)[C@H](O)[C@H]2O)cc1 [BG7P]"
  TARGET_OF_ASSAY: "HPA (Homo sapiens)"
  Hydrolysis product G2P [%]: 20

(I) O=[N+]([O-])c1ccc(O[C@H]2O[C@H](CO)[C@@H](O[C@H]3O[C@H](CO)[C@@H](O[C@H]4O[C@H](CO)[C@@H](O[C@H]5O[C@H](CO)[C@@H](O)[C@H](O)[C@H]5O)[C@H](O)[C@H]4O)[C@H](O)[C@H]3O)[C@H](O)[C@H]2O)cc1 [Substrate G4P]
(II) O=[N+]([O-])c1ccc(O[C@H]2O[C@H](CO)[C@@H](O[C@H]3O[C@H](CO)[C@@H](O[C@H]4O[C@H](CO)[C@@H](O[C@H]5O[C@H](COCc6ccccc6)[C@@H](O)[C@H](O)[C@H]5O)[C@H](O)[C@H]4O)[C@H](O)[C@H]3O)[C@H](O)[C@H]2O)cc1 [BG4P]
Decide: I or II , by lowest recorded Hydrolysis product G2P. Indicate your choice by writing its label.
II
(II: 8%, I: 55%)
